# Tested on: IL-6-GFP PC-9
# Assay: cell viability (CCK-8 OD) relative to DMSO control (fraction of control); higher = more viable cells
# Experimental Parameters: compound concentration: 10 uM; treatment time: 48 h
Parameter Measured: cell viability

These solved cases illustrate the format of a correct answer.
>  <Compound>
Cc1c(N)nc(C(CC(N)=O)NCC(N)C(N)=O)nc1C(=O)NC(C(=O)NC(C)C(O)C(C)C(=O)NC(C(=O)NCCc1nc(-c2nc(C(=O)NCCC[S+](C)C)cs2)cs1)C(C)O)C(OC1OC(CO)C(O)C(O)C1OC1OC(CO)C(O)C(OC(N)=O)C1O)c1c[nH]cn1.O=S(=O)([O-])O (stereo not given) [Bleomycin sulfate]

>  <cell viability>
0.473

$$$$
>  <Compound>
CC(C)[N+](C)(CCC(C(N)=O)(c1ccccc1)c1ccccc1)C(C)C.[I-] [Isopropamide Iodide]

>  <cell viability>
0.841

$$$$
>  <Compound>
c1ccc2c(c1)Sc1ccccc1N2CC1CN2CCC1CC2 (stereo not given)

>  <cell viability>
1.01

$$$$
>  <Compound>
CCC1(O)C(=O)OCc2c1cc1n(c2=O)Cc2cc3ccccc3nc2-1 (stereo not given)

>  <cell viability>
0.364

$$$$

Note: attention shifts to another entry.
If you can, please state the reported cell viability value of CC1CC(=O)CC2CCC3C4CCC(O)C4(C)CCC3C12C (stereo not given) .
1.21

----------
# Tested on: IL-6-GFP PC-9
# Assay: cell viability (CCK-8 OD) relative to DMSO control (fraction of control); higher = more viable cells
# Experimental Parameters: compound concentration: 10 uM; treatment time: 48 h
Known cell viability of a selection of molecules
Please reply with the value in numeric form only.

These solved cases illustrate the format of a correct answer.
>  <Molecule>
CC12CCC3C(CCC4=C(O)C(=O)CCC43C)C1CCC2=O (centres undefined) [Formestane]

>  <Parameter Measured>
cell viability

>  <Reported Measurement>
0.466

$$$$
>  <Molecule>
Cn1c(CCCC(=O)O)nc2cc(N(CCCl)CCCl)ccc21 [Bendamustine]

>  <Parameter Measured>
cell viability

>  <Reported Measurement>
1.02

$$$$
>  <Molecule>
COC1=CC2C3Cc4ccc(OC)c(O)c4C2(CCN3C)CC1=O (centres undefined) [Sinomenine]

>  <Parameter Measured>
cell viability

>  <Reported Measurement>
1.19

$$$$
>  <Molecule>
COc1cc(C2c3cc4c(cc3C(O)C3COC(=O)C23)OCO4)cc(OC)c1OC (centres undefined) [Picropodophyllin (PPP)]

>  <Parameter Measured>
cell viability

>  <Reported Measurement>
0.603

$$$$
>  <Molecule>
COc1cc2c(cc1O)CC1c3c(cc(O)c(OC)c3-2)CCN1C (centres undefined) [Boldine]

>  <Parameter Measured>
cell viability

>  <Reported Measurement>
1.05

$$$$

If you can, please state the reported cell viability value of O.O=P1(N(CCCl)CCCl)NCCCO1 (centres undefined) [Cyclophosphamide Monohydrate] .
1.2

If you can, please state the reported cell viability value of COC(=O)CC(O)(CCC(C)(C)O)C(=O)OC1C(OC)=CC23CCCN2CCc2cc4c(cc2C13)OCO4 (centres undefined) [Harringtonine] .
0.323

If you can, please state the reported cell viability value of CC(C)C12OC1C1OC13C1(C)CCC4=C(COC4=O)C1CC1OC13C2O (centres undefined) [Triptolide (PG490)] .
0.447

If you can, please state the reported cell viability value of O=P1(NCCCl)OCCCN1CCCl (centres undefined) [Ifosfamide] .
0.8
